target: yeast Glx I (Saccharomyces cerevisiae); construct: purchased Sigma Chem. Co; assay: Inhibition of yeast glyoxalase I; type: biochemical
MEASURED_QUANTITY: pKi
// pKi is dimensionless: -log10 of concentration (M)

Ask: State its pKi: C[C@@H](O)C(=O)SC[C@H](NC(=O)CC[C@H](N)C(=O)O)C(=O)NCC(=O)O [S-D-lactoylglutathione, reference compound]
Result: 2.65

---

target: yeast Glx I (Saccharomyces cerevisiae, UniProt P50107); construct: purchased Sigma Chem. Co; assay: Inhibition of yeast glyoxalase I; assay type: biochemical; conditions: read-out: Ki yeast Glx I
Sequence (P50107 whole entry): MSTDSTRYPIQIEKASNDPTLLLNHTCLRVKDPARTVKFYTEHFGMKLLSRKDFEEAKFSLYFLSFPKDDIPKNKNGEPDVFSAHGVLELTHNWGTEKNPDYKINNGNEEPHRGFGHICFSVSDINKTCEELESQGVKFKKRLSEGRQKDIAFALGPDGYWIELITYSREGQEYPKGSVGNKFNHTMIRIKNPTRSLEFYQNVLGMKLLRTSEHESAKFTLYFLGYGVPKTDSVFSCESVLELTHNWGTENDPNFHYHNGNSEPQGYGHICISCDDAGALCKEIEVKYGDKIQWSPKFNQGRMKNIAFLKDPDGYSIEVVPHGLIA
MEASURED_QUANTITY: pKi
// scale note: pKi = -log10(conc_M); give the bare number

Ask: Specify reported pKi for the compound shown: CN(O)C(=O)SC[C@H](NC(=O)CC[C@H](N)C(=O)O)C(=O)NCC(=O)O
Result: 4.17

---

molecular target: human erythrocyte Glx I (Homo sapiens, UniProt Q04760); construct: Human erythrocyte Glx I was purified to homogeneity from out-dated human blood; from tissue; host or cells: human erythrocytes (out-dated human blood); experiment: Inhibition of human erythrocyte glyoxalase I; type: biochemical; conditions: Table 7; read-out: Ki (competitive inhibition constants with human erythrocyte glyoxalase I)
Sequence (Q04760 2-184 limits assumed): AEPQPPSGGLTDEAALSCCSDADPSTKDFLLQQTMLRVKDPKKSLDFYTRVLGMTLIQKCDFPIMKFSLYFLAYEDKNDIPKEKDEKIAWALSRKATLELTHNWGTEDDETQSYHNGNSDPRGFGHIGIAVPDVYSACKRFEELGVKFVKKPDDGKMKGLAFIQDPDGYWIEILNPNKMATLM
pKi: −log10 of the molar value.
MEASURED_QUANTITY: pKi

Ask: Recall the reported pKi of CCOC(=O)CNC(=O)[C@H](CSC(=O)N(O)c1ccccc1)NC(=O)CC[C@H](N)C(=O)OCC [6a(Et)2] on human erythrocyte Glx I (Homo sapiens, UniProt Q04760) and write it down.
Result: < 3.00

---

Here's a batch of compounds along with measured pKi for bovine liver glyoxalase II (Bos taurus, UniProt Q3B7M2).
Remember, pKi is on a log scale: it is -log10 of the molar concentration.

As a guide, the following entries are already answered.
• N[C@@H](CCC(=O)N[C@@H](CSC(=O)N(O)c1ccccc1)C(=O)NCC(=O)O)C(=O)O = 4.96
• N[C@@H](CCC(=O)N[C@@H](CSC(=O)N(O)c1ccc(Br)cc1)C(=O)NCC(=O)O)C(=O)O = 5.92
• N[C@@H](CCC(=O)N[C@@H](CSC(=O)N(O)c1ccc(Cl)cc1)C(=O)NCC(=O)O)C(=O)O = 5.47

Ask: Give the reported pKi for this compound. CN(O)C(=O)SC[C@H](NC(=O)CC[C@H](N)C(=O)O)C(=O)NCC(=O)O
Result: 3.37

---

target: human erythrocyte Glx I (Homo sapiens); construct: Human erythrocyte Glx I was purified to homogeneity from out-dated human blood; from tissue; host or cells: human erythrocytes (out-dated human blood); assay: Inhibition of human erythrocyte glyoxalase I; type: biochemical; conditions: Phosphate buffer (50 mM, pH 7), 25° C.; read-out: Ki Erythrocytes
MEASURED_QUANTITY: Ki (µM)
Please respond with the number in µM and leave the unit unwritten.

Ask: Determine from records and report Ki for CN(O)C(=O)SC[C@H](NC(=O)CC[C@H](N)C(=O)O)C(=O)NCC(=O)O
Result: 1.95
